Hey, just so you know, these numbers are from the supplement of paper PMC6757056.

B1: library; a variant is named by its letters at N, in order (parent)
chain: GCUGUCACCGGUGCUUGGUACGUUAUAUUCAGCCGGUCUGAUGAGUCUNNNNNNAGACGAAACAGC

Variants of: B1
assay_procedure: normalized RNA/DNA level without ligand (relative to sTRSVctl = 100) (log10 (% of sTRSVctl)); HEK293T overexpressing SLC46A1; higher = less ribozyme self-cleavage, higher mRNA level
experimental_context: without (6R,S)-folinic acid; ligand present: no
recorded_endpoint: normalized RNA/DNA level without ligand (log10)
Give bare numbers.

Previously resolved entries follow.
[
  {
    "residue_codes": "GCUGUCACCGGUGCUUGGUACGUUAUAUUCAGCCGGUCUGAUGAGUCUCGCAGUAGACGAAACAGC [CGCAGU]",
    "reported": 2.04
  },
  {
    "residue_codes": "GCUGUCACCGGUGCUUGGUACGUUAUAUUCAGCCGGUCUGAUGAGUCUGACAUCAGACGAAACAGC [GACAUC]",
    "reported": 2.05
  },
  {
    "residue_codes": "GCUGUCACCGGUGCUUGGUACGUUAUAUUCAGCCGGUCUGAUGAGUCUGUACGCAGACGAAACAGC [GUACGC]",
    "reported": 2.01
  },
  {
    "residue_codes": "GCUGUCACCGGUGCUUGGUACGUUAUAUUCAGCCGGUCUGAUGAGUCUAUGCAUAGACGAAACAGC [AUGCAU]",
    "reported": 1.93
  },
  {
    "residue_codes": "GCUGUCACCGGUGCUUGGUACGUUAUAUUCAGCCGGUCUGAUGAGUCUGUCCGAAGACGAAACAGC [GUCCGA]",
    "reported": 2.02
  },
  {
    "residue_codes": "GCUGUCACCGGUGCUUGGUACGUUAUAUUCAGCCGGUCUGAUGAGUCUGGGUGUAGACGAAACAGC [GGGUGU]",
    "reported": 2.03
  }
]

Items follow; give normalized RNA/DNA level without ligand (log10) for each.
1. GCUGUCACCGGUGCUUGGUACGUUAUAUUCAGCCGGUCUGAUGAGUCUGCGGCCAGACGAAACAGC [GCGGCC]
2. GCUGUCACCGGUGCUUGGUACGUUAUAUUCAGCCGGUCUGAUGAGUCUCCACUUAGACGAAACAGC [CCACUU]
3. GCUGUCACCGGUGCUUGGUACGUUAUAUUCAGCCGGUCUGAUGAGUCUGCUCCAAGACGAAACAGC [GCUCCA]
4. GCUGUCACCGGUGCUUGGUACGUUAUAUUCAGCCGGUCUGAUGAGUCUGUCGACAGACGAAACAGC [GUCGAC]

1: 2.07; 2: 1.97; 3: 2.02; 4: 1.97

Items follow; give normalized RNA/DNA level without ligand (log10) for each.
1. GCUGUCACCGGUGCUUGGUACGUUAUAUUCAGCCGGUCUGAUGAGUCUGUGCGCAGACGAAACAGC [GUGCGC]
2. GCUGUCACCGGUGCUUGGUACGUUAUAUUCAGCCGGUCUGAUGAGUCUACCUAAAGACGAAACAGC [ACCUAA]
3. GCUGUCACCGGUGCUUGGUACGUUAUAUUCAGCCGGUCUGAUGAGUCUAGGGAGAGACGAAACAGC [AGGGAG]
4. GCUGUCACCGGUGCUUGGUACGUUAUAUUCAGCCGGUCUGAUGAGUCUGUGUUGAGACGAAACAGC [GUGUUG]
5. GCUGUCACCGGUGCUUGGUACGUUAUAUUCAGCCGGUCUGAUGAGUCUUCGUUGAGACGAAACAGC [UCGUUG]

1.97
2.02
1.87
1.94
1.88
